Species on record: Rattus norvegicus
Experiment: Ability to inhibit N-formyl-methionyl-leucyl-phenylalanine (fMLP)-stimulated release of myeloperoxidase (MPO) from rat polymorphonuclear leukocytes (PMN).
Assay type: functional
EXPERIMENTAL_READOUT: IC50

Check out these entries, answers already filled in.
COc1cc(C(=O)/C=C/c2ccccn2)cc(OC)c1OC | 18 µM
O=C(/C=C/c1ccncc1)c1ccccc1 | 49 µM
O=C1c2ccccc2-c2ccc(-c3cccnc3)cc21 | > 100 µM
COc1cc(C(=O)/C=C(\C)c2ccncc2)cc(OC)c1OC | > 100 µM
CO/N=C(\C=C\c1ccncc1)c1cc(OC)c(OC)c(OC)c1 | > 100 µM

# evaluate next
Prompt: Need IC50 of O=C(c1ccccc1)c1ccc(-c2cccnc2)cc1 , thanks.
Response: > 100 µM

Sourced from ChEMBL document CHEMBL1127292
